tested on: PC-3 prostate; experiment: NCI-60 one-dose screen, 48 h (100 = growth as untreated, 0 = no growth, -100 = all killed); conditions: 10 µM unless noted
The panel holds about 83,000 compounds, 20% with a hit somewhere; the sample as a whole holds those more often. Activity calls are given as the source filed them. Rule for the calls: active = growth percent below 10; inactive = the rest.
Parameter: growth. Scope: all listed entries.

Before answering, review these 8 worked examples.
[
  {
    "compound": "C=C1CC[C@@H]2[C@]3(C)COC(c4cn[nH]c4-c4cccc(Br)c4)O[C@@H]3CC[C@@]2(C)[C@@H]1C/C=C1/C(=O)OCC1O (some centres undefined)",
    "growth": "-47.9% (active)"
  },
  {
    "compound": "Cc1cc2nc3c4ccccc4n(CCNCCN(C)C)c3nc2cc1C",
    "growth": "18.2% (inactive)"
  },
  {
    "compound": "O=c1cc(-c2ccccc2)oc2cc(OCCCC[P+](c3ccccc3)(c3ccccc3)c3ccccc3)cc(O)c12",
    "growth": "-87.3% (active)"
  },
  {
    "compound": "Cc1ccc(-c2nc(C#N)c(S(=O)(=O)N3CCN(S(=O)(=O)c4ccc(Cl)cc4)CC3)o2)cc1",
    "growth": "101% (inactive)"
  },
  {
    "compound": "COc1ccc(-c2nnc3ccc(N/N=C/c4ccc(O)cc4)nn23)cc1",
    "growth": "40.5% (inactive)"
  },
  {
    "compound": "Clc1cccc(N/N=C/c2c[nH]c3ccc(Br)cc23)n1",
    "growth": "7.77% (active)"
  },
  {
    "compound": "Cc1ccc(/C=C/c2n(Cc3ccc4ccccc4c3)c3ccccc3[n+]2Cc2ccc3ccccc3c2)cc1",
    "growth": "-88.3% (active)"
  },
  {
    "compound": "COc1ccc(C2=NN(c3ccccc3)C(c3ccc(OCc4ccccc4)c(OC)c3)C2)cc1OC (centres undefined)",
    "growth": "92.7% (inactive)"
  }
]

Specify the recorded growth for "Cc1c(C(=O)NNC(=O)c2ccc(Cl)cc2)nnn1-c1ccc(Cl)cc1" , system: PC-3 prostate.
95.4% (inactive)
